- test-name: Accelerated solution test of acid hydrolysis of yellow dyes (HPLC)
- Assay type: physicochemical
- Parameters: unit not given here
- conditions: 1 mM dye in 6% Triton X100, pH 2.0, phosphate buffer, 50° C.
measure-name: kobs rate of hydrolysis

IN: Give its kobs rate of hydrolysis value. Item: "CCCCCCCCCCCCCCCCOC(=O)c1ccc(Cl)c(NC(=O)C(=Nc2ccc(N(CC)CCNS(C)(=O)=O)cc2C)C(=O)c2c(C3CCCCC3)n(C)c3ccccc23)c1"
OUT: 1.91

IN: What about this compound? "CCCCCCCCCCCCS(=O)(=O)c1ccc(NC(=O)C(=Nc2ccc(N(CC)CCNS(C)(=O)=O)cc2C)C(=O)c2c(-c3ccccc3)n(C)c3ccccc23)c(Cl)c1"
OUT: 0.17

IN: What about this compound? "CCCCCCCCCCCCNS(=O)(=O)c1ccc(NC(=O)C(=Nc2ccc(N(CC)CCNS(C)(=O)=O)cc2C)C(=O)c2c(-c3ccccc3)n(C)c3ccccc23)c(Cl)c1"
OUT: 0.31

IN: What about this compound? CCCCCCCCCCCCCCCCS(=O)(=O)Nc1ccc(Cl)c(NC(=O)C(=Nc2ccc(N(CC)CCNS(C)(=O)=O)cc2C)C(=O)C(C)(C)C)c1 [Cmp-11, reference compound]
OUT: 12.1

IN: What about this compound? "CCCCCCCCCCCCn1c(-c2ccccc2)c(C(=O)C(=Nc2ccc(N(CC)CCNS(C)(=O)=O)cc2C)C(=O)Nc2ccc(S(C)(=O)=O)cc2Cl)c2ccccc21"
OUT: 0.38

IN: What about this compound? "CCCCCCCCCCCCCCCCOC(=O)c1ccc(Cl)c(NC(=O)C(=Nc2ccc(N(CC)CCNS(C)(=O)=O)cc2C)C(=O)c2c(C)n(C)c3ccccc23)c1"
OUT: 9.63

IN: What about this compound? CCCCCCCCCCCCOC(=O)c1ccc(Cl)c(NC(=O)C(=Nc2ccc(N(CC)CCNS(C)(=O)=O)cc2C)C(=O)C(C)(C)C)c1 [Cmp-10, reference compound]
OUT: 5.57

IN: What about this compound? CCCCCCCCCCCCCCCCCCOc1ccc(S(=O)(=O)Nc2ccccc2Cl)cc1NC(=O)C(=Nc1ccc(N(CC)CCNS(C)(=O)=O)cc1C)C(=O)N1CCc2ccccc21 [Cmp-6, reference compound]
OUT: 2.48
